Where do these numbers come from? They come from PubChem BioAssay (NCI).

System: LOX IMVI melanoma
procedure details: NCI tumour cell line growth inhibition, 48 h; in the data active = GI50 below about 0.43 µM; inactive = the rest
Assign a class; possible classes are YES = active, NO = inactive

Request: Please indicate how the test categorized Oc1ccccc1-c1nn(CNc2ccccc2Cl)c(=S)o1 .
Result: NO

Request: Please indicate how the test categorized COC(=O)C1(C)Cc2cc(OC(C)=O)c(OC(C)=O)cc2N1 (stereo not drawn) .
Result: NO

Request: Please indicate how the test categorized O=C(O)[C@@H](Cc1ccc2ccccc2c1)NC(=O)n1c2ccccc2c2ccccc21 .
Result: NO

====

# key: entry, value: TGI
Test system: K-562 leukemia
procedure details: NCI tumour cell line growth inhibition, 48 h

NC(=S)NN/C=C(\C=Nc1ccccc1)[N+](=O)[O-] :: > 100 µM
C\C(=N/N=C1/C(=C\N(C)C)C(=O)NC(=O)N1C)c1ccc(Cl)cc1 :: > 100 µM
CNc1ccc(C(=O)CC(O)CCC(C)C2OC(=O)CC(O)CC(=O)CC(O)CC(O)CC(O)CC(O)CC3(O)CC(O)C(C(=O)NCCN4CCCCC4)C(CC(OC4OC(C)C(O)C(N)C4O)/C=C/C=C/C=C/C=C\C=C/C=C/C=C/C2C)O3)cc1 (stereo not drawn) :: > 100 µM
CCOC(=O)/C=C(\C(=O)OCC)n1ccc(=O)n(Cc2cn(COCCOC(C)=O)nn2)c1=O :: > 100 µM
O=[N+]([O-])c1ccc2c(c1)C1=NN(c3ccccc3)C(c3ccccc3Br)C1CCC2 (stereo not drawn) :: > 50 µM
CCOC(=O)c1cn2c(n1)sc1cc(Cl)cc(Cl)c12 :: > 100 µM
O=c1oc2ccc(I)cc2c(=O)n1-c1ccc(Cl)cc1F :: > 100 µM
COc1ccc(C(=O)NCCN(C)C)c2nc3ccccc3nc12 :: 5.72 µM
CC(C)(C)C(=O)[CH-]C(=O)C(C)(C)C.CC(C)(C)C(=O)[CH-]C(=O)C(C)(C)C.CN(C)c1ccc([O-])cc1.CN(C)c1ccc([O-])cc1.[Ti+4] :: > 100 µM
CN1/C(=C\C=C\C2=[N+](C)c3ccccc3C2(C)C)C(C)(C)c2ccccc21 :: 1.39 µM

Request: What value of TGI has been recorded for this entry: CCOC(=O)C(NC(=O)c1nc[nH]c1[N+](=O)[O-])C(C)C (stereo not drawn)
Result: > 100 µM

Request: What value of TGI has been recorded for this entry: COC(=O)C1(Cc2ccc3c(c2)CCC3)Cc2ccccc2C1
Result: 51.3 µM

Request: What value of TGI has been recorded for this entry: C=C1C(=O)O[C@H]2[C@H]1CC/C(C=Nc1c(N)cc(C(F)(F)F)cc1Br)=C\CC[C@@]1(C)O[C@@H]21
Result: 6.87 µM

Request: What value of TGI has been recorded for this entry: O=c1[nH]c(Nc2cccc(CO)c2)nc2nc[nH]c12
Result: > 100 µM

Request: What value of TGI has been recorded for this entry: O=c1cc(-c2ccccc2)oc2c(-c3cc(Cl)cc4c(=O)cc(-c5ccccc5)oc34)cc(Cl)cc12
Result: > 100 µM

Request: What value of TGI has been recorded for this entry: CC(C)(Oc1ccc(/C=C/C(=O)c2ccc(Cl)cc2)cc1)C(=O)Nc1c(Cl)cccc1Cl
Result: > 100 µM

Request: What value of TGI has been recorded for this entry: CC(=O)OCC1OC(N2C(=O)C(=O)c3ccccc32)C(OC(C)=O)C(OC(C)=O)C1OC(C)=O (stereo not drawn)
Result: > 100 µM

Request: What value of TGI has been recorded for this entry: CC(C)(C)c1cc(C(=O)/C=C/c2ccc3c(c2)OCO3)cc(C(C)(C)C)c1O
Result: > 39.1 µM
